Entries and their IC50 values follow.
Experiment: Inhibition of telomerase in human SW1116 cells after 24 hrs by TRAP-PCR-ELISA assay
Assay type: cell-based
Settings: sw 1116

Solved entries:
* O=C(CSc1nnc(-c2ccncc2)o1)N/N=C/c1cc(Cl)ccc1O | 3.13 µM
* O=C(CSc1nnc(-c2ccncc2)o1)N/N=C/c1cc(Cl)cc(Cl)c1O | 4.8 µM

The value of IC50 measured for the molecule O=C(CSc1nnc(-c2ccncc2)o1)N/N=C/c1ccc(F)cc1 turned out to be 10.2 µM

* * *

Assay: Cytotoxicity against human BGC823 cells after 48 hrs by MTT assay
Format: functional, cell-based
Conditions: BGC-823, 48 h
readout.kind: IC50

- O=C(CSc1nnc(-c2ccncc2)o1)N/N=C/c1cccc(F)c1: 27.5 µM
- O=C(CSc1nnc(-c2ccncc2)o1)N/N=C/c1ccc(Br)cc1: 24.5 µM
- O=C(CSc1nnc(-c2ccncc2)o1)N/N=C/c1cccc(C(F)(F)F)c1: 13 µM

With those in mind, consider the next molecule.
The value of IC50 measured for the molecule O=C(CSc1nnc(-c2ccncc2)o1)N/N=C/c1ccc(F)cc1 turned out to be 17.8 µM

* * *

Assay: Cytotoxicity against human BGC823 cells after 48 hrs by MTT assay
Assay type: functional, cell-based
Conditions: BGC-823, 48 h
pIC50: −log10 of the molar value.
Rule: pIC50 under 5 gives NOT MET, otherwise MET.

For orientation, consider the following solved cases.
- O=C(CSc1nnc(-c2ccncc2)o1)N/N=C/c1ccccc1O: MET
- O=C(CSc1nnc(-c2ccncc2)o1)N/N=C/c1cccs1: NOT MET

Task: Threshold query (pIC50 >= 5) on O=C(CSc1nnc(-c2ccncc2)o1)N/N=C/c1cc(Cl)ccc1O
Result: MET

Task: Threshold query (pIC50 >= 5) on Cc1ccc(/C=N/NC(=O)CSc2nnc(-c3ccncc3)o2)cc1
Result: NOT MET

Task: Threshold query (pIC50 >= 5) on COc1ccc(/C=N/NC(=O)CSc2nnc(-c3ccncc3)o2)cc1
Result: NOT MET

Task: Threshold query (pIC50 >= 5) on NNC(=O)CSc1nnc(-c2ccncc2)o1
Result: MET

Task: Threshold query (pIC50 >= 5) on O=C(CSc1nnc(-c2ccncc2)o1)N/N=C/c1cc(Cl)cc(Cl)c1O
Result: MET

Task: Threshold query (pIC50 >= 5) on O=C(CSc1nnc(-c2ccncc2)o1)N/N=C/c1ccc(Cl)cc1
Result: NOT MET

Task: Threshold query (pIC50 >= 5) on O=C(CSc1nnc(-c2ccncc2)o1)N/N=C/c1ccc([N+](=O)[O-])cc1
Result: NOT MET

Task: Threshold query (pIC50 >= 5) on O=C(CSc1nnc(-c2ccncc2)o1)N/N=C/c1ccccc1[N+](=O)[O-]
Result: NOT MET

* * *

Assay: Inhibition of telomerase in human SW1116 cells after 24 hrs by TRAP-PCR-ELISA assay
Assay type: cell-based
Settings: sw 1116
pIC50: −log10 of the molar value.
Rule: pIC50 under 5 gives N, otherwise Y.

For orientation, consider the following solved cases.
• O=C(CSc1nnc(-c2ccncc2)o1)N/N=C/c1cc(Br)ccc1O = Y
• O=C(CSc1nnc(-c2ccncc2)o1)N/N=C/c1ccccc1F = N

Task: Threshold query (pIC50 >= 5) on COc1cc(/C=N/NC(=O)CSc2nnc(-c3ccncc3)o2)ccc1O
Result: Y

* * *

Experiment: Inhibition of telomerase in human SW1116 cells after 24 hrs by TRAP-PCR-ELISA assay
Type: cell-based
Conditions: sw 1116
readout.kind: IC50 (µM)
# number only, unit µM dropped from output

Solved entries:
• O=C(CSc1nnc(-c2ccncc2)o1)N/N=C/c1cccc(C(F)(F)F)c1 = 5.18
• O=C(CSc1nnc(-c2ccncc2)o1)N/N=C/c1ccc(O)c(O)c1 = 1.18
• O=C(CSc1nnc(-c2ccncc2)o1)N/N=C/c1ccc(Br)cc1 = 12.4
• CC[n+]1c(-c2ccccc2)c2cc(N)ccc2c2ccc(N)cc21 [HOMIDIUM BROMIDE] = 2.71

With those in mind, consider the next compound.
The value of IC50 measured for the compound O=C(CSc1nnc(-c2ccncc2)o1)N/N=C/c1ccc([N+](=O)[O-])cc1 turned out to be 16.7

* * *

Test: Cytotoxicity against human BGC823 cells after 48 hrs by MTT assay
Type: functional, cell-based
Settings: BGC-823, 48 h
pIC50: −log10 of the molar value.
Rule: pIC50 under 5 gives f, otherwise t.

- COc1cccc(/C=N/NC(=O)CSc2nnc(-c3ccncc3)o2)c1: f
- COc1cc(/C=N/NC(=O)CSc2nnc(-c3ccncc3)o2)ccc1O: t

# evaluate next
Task: Threshold query (pIC50 >= 5) on O=C(CSc1nnc(-c2ccncc2)o1)N/N=C/c1ccc(Cl)cc1Cl
Result: f

* * *

Experiment: Inhibition of telomerase in human SW1116 cells after 24 hrs by TRAP-PCR-ELISA assay
Format: cell-based
Conditions: sw 1116
Entries and their pIC50 values follow.
Remember the convention: pIC50 equals -log10 of concentration in molar.

Solved entries:
• O=C(CSc1nnc(-c2ccncc2)o1)N/N=C/c1ccco1 = 5.02
• O=C(CSc1nnc(-c2ccncc2)o1)N/N=C/c1ccc(Cl)cc1 = 4.93

With those in mind, consider the next compound.
The value of pIC50 measured for the compound COc1cccc(/C=N/NC(=O)CSc2nnc(-c3ccncc3)o2)c1 turned out to be 5.12

* * *

Assay: Cytotoxicity against human BGC823 cells after 48 hrs by MTT assay
Format: functional, cell-based
Conditions: BGC-823, 48 h
Entries and their IC50 values follow.
# number only, unit µM dropped from output

Solved entries:
* O=C(CSc1nnc(-c2ccncc2)o1)N/N=C/c1ccc(O)cc1 | 7.94
* O=C(CSc1nnc(-c2ccncc2)o1)N/N=C/c1cc(Br)cc(Br)c1O | 9.61
* O=C(CSc1nnc(-c2ccncc2)o1)N/N=C/C=C/c1ccccc1 | 10.6

With those in mind, consider the next compound.
The value of IC50 measured for the compound O=C(CSc1nnc(-c2ccncc2)o1)N/N=C/c1cc(Br)ccc1O turned out to be 9.59
